Values compiled from ChEMBL document CHEMBL3600324.

ASSAY NOTES: Tmax in Wistar rat at 6.7 umol/kg, po
Type: ADME, organism-based
TEST SETTINGS: in vivo
ASSAY ENDPOINT: Tmax (min)
All answers are understood in min, so give the number only.

For reference, reported Tmax for CC(=O)NC1CCN(Cc2ccc(OCCCc3ccc(Oc4ccccc4)nn3)cc2)CC1 stands at 48

----------
System: U-937
ASSAY NOTES: Toxicity in human U937 cells assessed as phospholipidosis first effect concentration by Nile red based fluorescence assay
Assay type: cell-based
Kindly state Activity for each of the entries shown.
All answers are understood in µM, so give the number only.

For reference, reported Activity for OC1CCN(Cc2ccc(OCCCc3ccc(-c4ccc(Cl)cc4)nn3)cc2)CC1 stands at 25

For reference, reported Activity for COc1ccc(-c2ccc(CCCNc3ccc(CN4CCOCC4)cc3)nn2)cc1 stands at 12.5

For reference, reported Activity for COc1ccc(-c2ccc(CCCNc3ccc(CN4CCCC(O)C4)cc3)nn2)cc1 (stereo unspecified) stands at 25

For reference, reported Activity for CC(=O)NC1CCN(Cc2ccc(OCCCc3ccc(Oc4ccccc4)nn3)cc2)CC1 stands at 100

For reference, reported Activity for OCC1CCN(Cc2ccc(OCCCc3ccc(Oc4ccccc4)nn3)cc2)CC1 stands at 100

For reference, reported Activity for OC1CCN(Cc2ccc(NCCCc3ccc(Oc4ccccc4)nn3)cc2)CC1 stands at 50

For reference, reported Activity for OC1CCN(Cc2ccc(NCCCc3ccc(OCc4ccccc4)nn3)cc2)CC1 stands at 50

For reference, reported Activity for COc1ccc(-c2ccc(CCCNc3ccc(CN4CCC(O)CC4)cc3)nn2)cc1 stands at 50

For reference, reported Activity for COc1ccc(-c2ccc(CCCNc3ccc(CN4CCCCC4)cc3)nn2)cc1 stands at 6.25

For reference, reported Activity for Clc1ccc(-c2ccc(CCCNc3ccc(CN4CCCCC4)cc3)nn2)cc1 stands at 6.25

For reference, reported Activity for CC(=O)NC1CCN(Cc2ccc(OCCCc3ccc(-c4ccc(F)cc4)nn3)cc2)CC1 stands at 100

For reference, reported Activity for COc1ccc(-c2ccc(CCCNc3ccc(CN4CCC(NC(C)=O)CC4)cc3)nn2)cc1 stands at 100

For reference, reported Activity for O[C@@H]1CCCN(Cc2ccc(OCCCc3ccc(-c4ccc(Cl)cc4)nn3)cc2)C1 stands at 6.25

For reference, reported Activity for OCC1CCN(Cc2ccc(OCCCc3ccc(-c4ccc(Cl)cc4)nn3)cc2)CC1 stands at 12.5

For reference, reported Activity for CC(=O)NC1CCN(Cc2ccc(OCCCc3ccc(Cc4ccccc4)nn3)cc2)CC1 stands at 100

----------
ASSAY NOTES: Tmax in Wistar rat at 10.9 umol/kg, po
Assay type: ADME, organism-based
TEST SETTINGS: in vivo
ASSAY ENDPOINT: Tmax (h)
All answers are understood in h, so give the number only.

For reference, reported Tmax for CC(=O)NC1CCN(Cc2ccc(NCCCc3ccc(Oc4ccccc4)nn3)cc2)CC1 stands at 2.8

----------
TEST TARGET: Muscarinic acetylcholine receptor M1 (Homo sapiens)
Sequence (P11229 whole entry): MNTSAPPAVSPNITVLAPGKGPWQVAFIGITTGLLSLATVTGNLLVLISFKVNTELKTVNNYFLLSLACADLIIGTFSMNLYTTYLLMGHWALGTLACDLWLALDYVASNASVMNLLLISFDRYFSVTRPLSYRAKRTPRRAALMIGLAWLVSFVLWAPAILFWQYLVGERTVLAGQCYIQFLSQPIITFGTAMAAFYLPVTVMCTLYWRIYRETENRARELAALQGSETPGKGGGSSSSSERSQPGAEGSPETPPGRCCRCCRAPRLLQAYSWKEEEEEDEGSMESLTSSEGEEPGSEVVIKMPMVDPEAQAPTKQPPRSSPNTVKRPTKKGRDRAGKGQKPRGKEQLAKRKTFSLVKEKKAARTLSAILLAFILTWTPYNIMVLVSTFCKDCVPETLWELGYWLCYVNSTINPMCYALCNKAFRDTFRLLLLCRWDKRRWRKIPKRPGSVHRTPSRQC
Kindly state IC50 for each of the entries shown.

For reference, reported IC50 for O=C(COc1ccc(-c2ccc(Cl)cc2)cc1)Nc1ccc(CN2CCCCC2)cc1 stands at 446 nM

For reference, reported IC50 for COc1ccc(-c2ccc(CCCNc3ccc(CN4CCC(O)CC4)cc3)nn2)cc1 stands at > 10000 nM

For reference, reported IC50 for O[C@@H]1CCCN(Cc2ccc(OCCCc3ccc(Oc4ccccc4)nn3)cc2)C1 stands at > 10000 nM

For reference, reported IC50 for CC(=O)NC1CCN(Cc2ccc(OCCCc3ccc(Oc4ccccc4)nn3)cc2)CC1 stands at > 10000 nM

For reference, reported IC50 for OC1CCN(Cc2ccc(OCCCc3ccc(-c4ccc(F)cc4)nn3)cc2)CC1 stands at > 10000 nM

For reference, reported IC50 for N#Cc1ccc(-c2ccc(CCCNc3ccc(CN4CCCCC4)cc3)nn2)cc1 stands at 1920 nM

For reference, reported IC50 for COc1ccc(-c2ccc(CCCNc3ccc(CN4CCOCC4)cc3)nn2)cc1 stands at > 10000 nM

For reference, reported IC50 for O=C(CCc1ccc(-c2ccc(Cl)cc2)cc1)Nc1ccc(CN2CCCCC2)cc1 stands at 89 nM

For reference, reported IC50 for CC(=O)NC1CCN(Cc2ccc(NCCCc3ccc(Oc4ccccc4)nn3)cc2)CC1 stands at > 10000 nM

For reference, reported IC50 for OC1CCN(Cc2ccc(NCCCc3ccc(OCc4ccccc4)nn3)cc2)CC1 stands at > 10000 nM

For reference, reported IC50 for OCC1CCN(Cc2ccc(OCCCc3ccc(Oc4ccccc4)nn3)cc2)CC1 stands at 2110 nM

----------
TEST TARGET: Voltage-gated inwardly rectifying potassium channel KCNH2 (Homo sapiens, UniProt Q12809)
ASSAY NOTES: Inhibition of human ERG by patch clamp assay
ASSAY ENDPOINT: IC50

For reference, reported IC50 for CC(=O)NC1CCN(Cc2ccc(NCCCc3ccc(Oc4ccccc4)nn3)cc2)CC1 stands at > 10 µM

----------
TEST TARGET: hERG (KCNH2) (Homo sapiens)
Sequence (Q12809 whole entry): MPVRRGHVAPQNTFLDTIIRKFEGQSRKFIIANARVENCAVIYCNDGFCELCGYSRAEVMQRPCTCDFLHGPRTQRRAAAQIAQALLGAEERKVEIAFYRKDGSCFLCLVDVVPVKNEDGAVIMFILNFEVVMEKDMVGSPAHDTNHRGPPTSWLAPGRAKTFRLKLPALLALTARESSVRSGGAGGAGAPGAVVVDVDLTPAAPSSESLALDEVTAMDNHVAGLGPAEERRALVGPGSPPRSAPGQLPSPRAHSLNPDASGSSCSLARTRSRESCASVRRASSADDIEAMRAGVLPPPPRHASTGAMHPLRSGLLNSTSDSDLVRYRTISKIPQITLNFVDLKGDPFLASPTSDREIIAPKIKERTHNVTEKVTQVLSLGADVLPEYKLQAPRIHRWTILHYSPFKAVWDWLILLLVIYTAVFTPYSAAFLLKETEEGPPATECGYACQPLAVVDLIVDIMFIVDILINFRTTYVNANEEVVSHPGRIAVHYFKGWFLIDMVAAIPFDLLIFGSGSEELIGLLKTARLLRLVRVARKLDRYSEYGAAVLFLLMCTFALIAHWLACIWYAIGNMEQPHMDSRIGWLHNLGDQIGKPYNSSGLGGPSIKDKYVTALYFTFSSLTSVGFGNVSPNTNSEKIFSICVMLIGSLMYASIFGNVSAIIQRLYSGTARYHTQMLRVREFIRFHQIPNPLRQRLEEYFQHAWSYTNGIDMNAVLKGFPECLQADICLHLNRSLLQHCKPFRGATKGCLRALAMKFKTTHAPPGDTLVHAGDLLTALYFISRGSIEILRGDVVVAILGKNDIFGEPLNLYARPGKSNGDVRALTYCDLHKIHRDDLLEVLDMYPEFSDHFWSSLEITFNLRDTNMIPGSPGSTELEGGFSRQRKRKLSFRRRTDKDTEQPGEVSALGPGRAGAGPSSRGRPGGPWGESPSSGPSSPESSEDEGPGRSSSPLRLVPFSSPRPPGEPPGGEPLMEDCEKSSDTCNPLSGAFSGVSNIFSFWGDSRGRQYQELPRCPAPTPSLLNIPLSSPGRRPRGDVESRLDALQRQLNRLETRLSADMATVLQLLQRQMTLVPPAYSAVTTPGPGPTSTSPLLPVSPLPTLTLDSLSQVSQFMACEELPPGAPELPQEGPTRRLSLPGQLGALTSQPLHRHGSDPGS
ASSAY NOTES: Inhibition of human ERG at 1 uM by patch clamp assay
ASSAY ENDPOINT: inhibition at 1 µM (%)
All answers are understood in %, so give the number only.

For reference, reported inhibition at 1 µM for COc1ccc(-c2ccc(CCCNc3ccc(CN4CCC(O)CC4)cc3)nn2)cc1 stands at 10

For reference, reported inhibition at 1 µM for Clc1ccc(-c2ccc(CCCNc3ccc(CN4CCCCC4)cc3)nn2)cc1 stands at 8

For reference, reported inhibition at 1 µM for Clc1ccc(-c2ccc(CCCNc3ccc(CN4CCCCC4)cc3)cc2)cc1 stands at 76

For reference, reported inhibition at 1 µM for COc1ccc(-c2ccc(CCCNc3ccc(CN4CCCC(O)C4)cc3)nn2)cc1 (stereo unspecified) stands at 10

For reference, reported inhibition at 1 µM for OCC1CCN(Cc2ccc(OCCCc3ccc(Oc4ccccc4)nn3)cc2)CC1 stands at 8

For reference, reported inhibition at 1 µM for COc1ccc(-c2ccc(CCCNc3ccc(CN4CCC(NC(C)=O)CC4)cc3)nn2)cc1 stands at 7

For reference, reported inhibition at 1 µM for O[C@@H]1CCCN(Cc2ccc(OCCCc3ccc(-c4ccc(Cl)cc4)nn3)cc2)C1 stands at 13

For reference, reported inhibition at 1 µM for CC(=O)NC1CCN(Cc2ccc(OCCCc3ccc(Cc4ccccc4)nn3)cc2)CC1 stands at 13

For reference, reported inhibition at 1 µM for OC1CCN(Cc2ccc(OCCCc3ccc(-c4ccc(Cl)cc4)nn3)cc2)CC1 stands at 38

For reference, reported inhibition at 1 µM for COc1ccc(-c2ccc(CCCNc3ccc(CN4CCOCC4)cc3)nn2)cc1 stands at 5

For reference, reported inhibition at 1 µM for OC1CCN(Cc2ccc(NCCCc3ccc(OCc4ccccc4)nn3)cc2)CC1 stands at 4

----------
ASSAY NOTES: Dissociation constant, pKa of the compound
Format: physicochemical
ASSAY ENDPOINT: pKa

For reference, reported pKa for COc1ccc(-c2ccc(CCCNc3ccc(CN4CCC(NC(C)=O)CC4)cc3)nn2)cc1 stands at 8.8

For reference, reported pKa for COc1ccc(-c2ccc(CCCNc3ccc(CN4CCC(O)CC4)cc3)nn2)cc1 stands at 8.6

For reference, reported pKa for COc1ccc(-c2ccc(CCCNc3ccc(CN4CCOCC4)cc3)nn2)cc1 stands at 7.6

For reference, reported pKa for OC1CCN(Cc2ccc(NCCCc3ccc(Oc4ccccc4)nn3)cc2)CC1 stands at 9.1

For reference, reported pKa for COc1ccc(-c2ccc(CCCNc3ccc(CN4CCCCC4)cc3)nn2)cc1 stands at 9
